# system_tested: T1, aggregated synthetic Aβ1-42 (human, UniProt P05067 672-713)
# T1 construct: domain: Aβ1-42; Synthetic peptide, aggregated, coated for ELISA; also called 凝集Aβ1−42; Aβ(1-42) aggregate
# test_details: quantitative Aβ(1-42) aggregate binding assay, COS conditioned medium
parameter_measured: binding result

INSERT INTO results (binder, parameter_measured, reading) VALUES
  ('humanized 12A11 antibody, version 3 (antibody, V domains shown, Variable regions only; tested in conditioned medium of COS cells; also called h12A11v3; v3) VH: QVQLVESGGGVVQPGRSLRLSCAFSGFTLSTSGMSVGWIRQAPGKGLEWVAHIWWDDDKYYNPSLKSRFTISRDNSKNTLYLQMNSLRAEDTAVYYCARRTTTADYFAYWGQGTTVTVSS VL: DVVMTQSPLSLPVTPGEPASISCRSSQSIVHSNGNTYLEWYLQKPGQSPQLLIYKVSNRFSGVPDRFSGSGSGTDFTLKISRVEAEDVGVYYCFQSSHVPLTFGQGTKLEIK', 'binding result', 'binds'),
  ('humanized 12A11 antibody, version 2.1 (antibody, V domains shown, Variable regions only; tested in conditioned medium of COS cells; also called h12A11v2.1; v2.1) VH: QVQLVESGGGVVQPGRSLRLSCAFSGFTLSTSGMSVGWIRQAPGKGLEWVAHIWWDDDKYYNPSLKSRFTISKDNSKNTLYLQMNSLRAEDTAVYYCARRTTTADYFAYWGQGTTVTVSS VL: DVVMTQSPLSLPVTPGEPASISCRSSQSIVHSNGNTYLEWYLQKPGQSPQLLIYKVSNRFSGVPDRFSGSGSGTDFTLKISRVEAEDVGVYYCFQSSHVPLTFGQGTKLEIK', 'binding result', 'binds'),
  ('humanized 12A11 antibody, version 5.1 (antibody, V domains shown, Variable regions only; also called h12A11v5.1; バージョン5.1) VH: QVQLVESGGGVVQPGRSLRLSCAFSGFTLSTSGMSVGWIRQAPGKGLEWVAHIWWDDDKYYNPSLKSRLTISKDTSKNTVYLQMNSLRAEDTAVYYCARRTTTADYFAYWGQGTTVTVSS VL: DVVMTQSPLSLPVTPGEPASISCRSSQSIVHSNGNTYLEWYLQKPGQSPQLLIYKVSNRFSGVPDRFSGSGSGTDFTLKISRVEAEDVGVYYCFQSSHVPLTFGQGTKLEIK', 'binding result', 'binds');
